This collection of values is drawn from ChEMBL document CHEMBL3120047.

Assay: Inhibition of HCV genotype 1b NS3/NS4A protease using DDIVPCSMSYTW as substrate by radiometric enzymatic assay
Set-up: species or system Hepatitis C virus subtype 1b
Reported Ki is given for each of the following compounds.
Form field: result (number plus unit)

>>> df
                  compound_structure_string  measurement_kind  recorded_value
0  COc1ccc2c(O[C@@H]3C[C@@H](C(=O)NC4(C(=O)O)CC4)N(C(=O)[C@@H](NC(=O)OC(C)(C)C)C(C)(C)C)C3)cc(-c3ccccc3)nc2c1                Ki         0.35 µM
1  C=C[C@@H]1C[C@]1(NC(=O)[C@@H]1C[C@@H](Oc2cc(-c3ccccc3)nc3cc(OC)ccc23)CN1C(=O)[C@H](C)NC(=O)OC(C)(C)C)C(=O)O                Ki         0.31 µM
2  C=C[C@@H]1C[C@]1(NC(=O)[C@@H]1C[C@@H](Oc2cc(-c3ccccc3)nc3cc(OC)ccc23)CN1C(C)=O)C(=O)O                Ki           28 µM
3  C=C[C@@H]1C[C@]1(NC(=O)[C@@H]1C[C@@H](Oc2cc(-c3ccccc3)nc3cc(OC)ccc23)CN1C(=O)[C@@H](NC(=O)OC(C)(C)C)C(C)(C)C)C(=O)O                Ki         0.02 µM

# input Entry under review: C=C[C@@H]1C[C@]1(NC(=O)[C@@H]1C[C@@H](Oc2cc(-c3ccccc3)nc3cc(OC)ccc23)CN1C(=O)CNC(=O)OC(C)(C)C)C(=O)O . Reported Ki?
# output 3 µM

# input Look up Ki: C=C[C@@H]1C[C@]1(NC(=O)[C@@H]1C[C@@H](Oc2ccccc2)CN1C(=O)[C@@H](NC(=O)OC(C)(C)C)C(C)(C)C)C(=O)O
# output 29 µM
